Would you kindly list Css (mg/L) for each of these compounds?
assay: IVIVE: steady-state concentration (Css), generic HTTK model; parameters: species or system human; conditions: Assuming 1 mg/kg/day dose rate; BW 70 kg
Please answer in the form of a number followed by its unit of measurement.

[[record]]
compound = "O=C(O)C(F)(F)C(F)(F)C(F)(F)F"
property = "Css (mg/L)"
recorded_value = "2.60 mg/L"

[[record]]
compound = "O=C(O)C(F)(F)OC(F)(F)C(F)(F)OC(F)(F)C(F)(F)C(F)(F)C(F)(F)F"
property = "Css (mg/L)"
recorded_value = "344.78 mg/L"

[[record]]
compound = "O=C([O-])C(F)(F)C(F)(F)C(F)(F)C(F)(F)C(F)(F)C(F)(F)C(F)(F)F.[Na+] [Sodium perfluorooctanoate (NaPFOA)]"
property = "Css (mg/L)"
recorded_value = "402.24 mg/L"

[[record]]
compound = "O=C(O)C(F)(F)C(F)(F)C(F)(F)C(F)(F)C(F)(F)C(F)(F)C(F)(F)C(F)(F)C(F)(F)C(F)(F)C(F)(F)C(F)(F)C(F)(F)F"
property = "Css (mg/L)"
recorded_value = "8.91 mg/L"

[[record]]
compound = "O=C(O)C(F)(F)C(F)(F)C(F)(F)C(F)(F)C(F)(F)C(F)(F)C(F)(F)C(F)(F)C(F)(F)C(F)F"
property = "Css (mg/L)"
recorded_value = "160.90 mg/L"

[[record]]
compound = "NS(=O)(=O)C(F)(F)C(F)(F)C(F)(F)C(F)(F)C(F)(F)C(F)(F)C(F)(F)C(F)(F)F [Perfluorooctane sulfonamide (PFOSA)]"
property = "Css (mg/L)"
recorded_value = "2.16 mg/L"

[[record]]
compound = "O=C(O)C(F)(F)C(F)(F)C(F)(F)C(F)(F)F"
property = "Css (mg/L)"
recorded_value = "5.49 mg/L"


Query: I'd like to know its Css (mg/L). The compound in question is `O=P(O)(O)CCC(F)(F)C(F)(F)C(F)(F)C(F)(F)C(F)(F)C(F)(F)F`
Reply: 19.62 mg/L

Cited source: paper PMC11435625
